Cited source: patent US20240279278A1

Biological target: human NMUR1 receptor (Homo sapiens, UniProt Q9HB89)
Sequence (Q9HB89 1-426): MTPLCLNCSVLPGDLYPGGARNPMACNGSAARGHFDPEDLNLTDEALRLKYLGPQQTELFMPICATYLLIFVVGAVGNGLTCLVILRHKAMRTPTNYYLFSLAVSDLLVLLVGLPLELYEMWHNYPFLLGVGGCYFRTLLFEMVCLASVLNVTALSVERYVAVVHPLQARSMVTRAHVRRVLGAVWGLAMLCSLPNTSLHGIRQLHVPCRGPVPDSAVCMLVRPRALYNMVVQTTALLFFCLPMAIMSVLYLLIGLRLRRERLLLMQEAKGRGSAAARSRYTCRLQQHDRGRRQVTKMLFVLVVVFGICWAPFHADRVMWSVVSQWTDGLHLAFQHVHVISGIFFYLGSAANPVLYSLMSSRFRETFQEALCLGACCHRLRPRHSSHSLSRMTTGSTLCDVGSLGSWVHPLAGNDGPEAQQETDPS
Assay: IP1 Gq HTRF assay, activation of human NMUR1 in buffer
Details: CHO-K1 cells expressing human NMUR1, stimulation buffer with 0.1% BSA; read-out: EC50 (hNMUR1) buffer
pEC50: −log10 of the molar value.
measured_property: pEC50

Q. Find the recorded pEC50 belonging to CCCC[C@H](NC(=O)[C@H](CC(C)C)N(C)C(=O)[C@H](Cc1ccccc1)NC(=O)[C@H](Cc1ccc(O)cc1)NC(=O)CN1CCN(CCNC(=O)CN(C)C(=O)CN(C)C(=O)CN(C)C(=O)CN(C)C(=O)CN(C)C(=O)CN(C)C(=O)CN(C)C(=O)CN(C)C(=O)CN(C)C(=O)CN(C)C(=O)CN(C)C(=O)CN(C)C(=O)CC[C@H](NC(=O)CC[C@H](NC(=O)CC[C@H](NC(=O)CCCCCCCCCCCCCCCCC(=O)O)C(=O)O)C(=O)O)C(=O)O)CC1)C(=O)N[C@@H](CCCN)C(=O)N(C)[C@@H](C)C(=O)N[C@@H](CCCNC(=N)N)C(=O)NCC(N)=O [Compound 20] and report it.
A. < 6.00

----------
Listed next: entries and their corresponding pEC50.
Molecular target: human NMUR1 receptor (Homo sapiens)
Test: IP1 Gq HTRF assay, activation of human NMUR1 in buffer
Settings: CHO-K1 cells expressing human NMUR1, stimulation buffer with 0.1% BSA; read-out: EC50 (hNMUR1) buffer
pEC50: −log10 of the molar value.

given_smiles | target_system | measured_property | value
CCCC[C@H](NC(=O)[C@H](CC(C)C)N(C)C(=O)[C@H](Cc1ccccc1)NC(=O)[C@H](Cc1ccc(O)cc1)NC(=O)CN1CCN(CCNC(=O)CN(C)C(=O)CN(C)C(=O)CN(C)C(=O)CN(C)C(=O)CN(C)C(=O)CN(C)C(=O)CN(C)C(=O)CN(C)C(=O)CN(C)C(=O)CN(C)C(=O)CN(C)C(=O)CN(C)C(=O)CC[C@H](NC(=O)CC[C@H](NC(=O)CC[C@H](NC(=O)CCCCCCCCCCCCCCCCC(=O)O)C(=O)O)C(=O)O)C(=O)O)CC1)C(=O)N[C@@H](CCN)C(=O)N(C)[C@@H](C)C(=O)N[C@@H](CCCNC(=N)N)C(=O)NCC(N)=O | human NMUR1 receptor (Homo sapiens) | pEC50 | < 6.00
CCCC[C@H](NC(=O)[C@H](CC(C)C)N(C)C(=O)[C@H](Cc1ccccc1)NC(=O)[C@H](Cc1ccc(O)cc1)NC(=O)CN1CCN(CCNC(=O)CN(C)C(=O)CN(C)C(=O)CN(C)C(=O)CN(C)C(=O)CN(C)C(=O)CN(C)C(=O)CN(C)C(=O)CN(C)C(=O)CN(C)C(=O)CN(C)C(=O)CN(C)C(=O)CN(C)C(=O)CC[C@H](NC(=O)CC[C@H](NC(=O)CC[C@H](NC(=O)CCCCCCCCCCCCCCCCC(=O)O)C(=O)O)C(=O)O)C(=O)O)CC1)C(=O)N[C@@H](CCN)C(=O)N1CCC[C@H]1C(=O)N[C@@H](CCCNC(=N)N)C(=O)NCC(N)=O | human NMUR1 receptor (Homo sapiens) | pEC50 | 5.77

Q. Form field: pEC50 recorded for `CCCC[C@H](NC(=O)[C@H](CC(C)C)N(C)C(=O)[C@H](Cc1ccccc1)NC(=O)[C@H](Cc1ccc(O)cc1)NC(=O)CN1CCN(CCNC(=O)CN(C)C(=O)CN(C)C(=O)CN(C)C(=O)CN(C)C(=O)CN(C)C(=O)CN(C)C(=O)CN(C)C(=O)CN(C)C(=O)CN(C)C(=O)CN(C)C(=O)CN(C)C(=O)CN(C)C(=O)CC[C@H](NC(=O)CC[C@H](NC(=O)CC[C@H](NC(=O)CCCCCCCCCCCCCCCCCCC(=O)O)C(=O)O)C(=O)O)C(=O)O)CC1)C(=O)N[C@@H](CCN)C(=O)N(C)[C@@H](C)C(=O)N[C@@H](CCCNC(=N)N)C(=O)NCC(N)=O` with human NMUR1 receptor (Homo sapiens) (enter value)
A. < 6.00

----------
Molecular target: human NMUR2 receptor (Homo sapiens, UniProt Q9GZQ4)
Sequence (Q9GZQ4 whole entry): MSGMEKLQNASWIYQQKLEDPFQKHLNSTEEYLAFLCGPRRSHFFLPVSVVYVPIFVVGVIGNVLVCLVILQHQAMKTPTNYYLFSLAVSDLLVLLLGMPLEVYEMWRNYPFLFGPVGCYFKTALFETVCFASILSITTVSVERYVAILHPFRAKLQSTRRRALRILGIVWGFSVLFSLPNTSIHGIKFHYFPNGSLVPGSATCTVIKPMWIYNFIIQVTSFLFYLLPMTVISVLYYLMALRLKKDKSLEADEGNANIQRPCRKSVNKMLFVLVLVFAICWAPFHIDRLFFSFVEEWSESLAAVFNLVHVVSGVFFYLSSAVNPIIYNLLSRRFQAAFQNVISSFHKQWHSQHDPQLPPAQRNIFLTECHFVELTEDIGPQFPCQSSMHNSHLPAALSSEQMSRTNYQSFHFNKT
Experiment: IP1 Gq HTRF assay, activation of human NMUR2 in buffer
Assay type: cell-based
Design: expressed in transfected cells; host or cells: CHO-K1
Conditions: CHO-K1 cells expressing human NMUR2, stimulation buffer with 0.1% BSA; read-out: EC50 (hNMUR2) buffer
measured_property: EC50

Q. Find the recorded EC50 belonging to `CCCC[C@H](NC(=O)[C@H](CC(C)C)N(C)C(=O)[C@H](Cc1ccccc1)NC(=O)[C@H](Cc1ccc(O)cc1)NC(=O)CN1CCN(CCNC(=O)CN(C)C(=O)CN(C)C(=O)CN(C)C(=O)CN(C)C(=O)CN(C)C(=O)CN(C)C(=O)CN(C)C(=O)CN(C)C(=O)CN(C)C(=O)CN(C)C(=O)CN(C)C(=O)CN(C)C(=O)CC[C@H](NC(=O)CC[C@H](NC(=O)CC[C@H](NC(=O)CCCCCCCCCCCCCCCCC(=O)O)C(=O)O)C(=O)O)C(=O)O)CC1)C(=O)N[C@@H](CCCN)C(=O)N(C)[C@@H](C)C(=O)N[C@@H](CCCNC(=N)N)C(=O)NCC(N)=O` and report it.
A. 2.2 nM

----------
Molecular target: human NMUR1 receptor (Homo sapiens, UniProt Q9HB89)
Experiment: IP1 Gq HTRF assay, activation of human NMUR1 in buffer
Conditions: CHO-K1 cells expressing human NMUR1, stimulation buffer with 0.1% BSA; read-out: EC50 (hNMUR1) buffer
measured_property: EC50 (nM)
Response body: numeric value in nM, unit text excluded.

Q. Find the recorded EC50 belonging to `CCCC[C@H](NC(=O)[C@H](CC(C)C)N(C)C(=O)[C@H](Cc1ccccc1)NC(=O)[C@H](Cc1ccc(O)cc1)NC(=O)CN1CCN(CCNC(=O)CN(C)C(=O)CN(C)C(=O)CN(C)C(=O)CN(C)C(=O)CN(C)C(=O)CN(C)C(=O)CN(C)C(=O)CN(C)C(=O)CN(C)C(=O)CN(C)C(=O)CN(C)C(=O)CN(C)C(=O)CC[C@H](NC(=O)CC[C@H](NC(=O)CC[C@H](NC(=O)CCCCCCCCCCCCCCCCCCC(=O)O)C(=O)O)C(=O)O)C(=O)O)CC1)C(=O)N[C@@H](CCN)C(=O)N1CCC[C@H]1C(=O)N[C@@H](CCCNC(=N)N)C(=O)NCC(N)=O` and report it.
A. 1000

----------
Biological target: human NMUR2 receptor (Homo sapiens)
Assay: IP1 Gq HTRF assay, activation of human NMUR2 in buffer
Type: cell-based
Set-up: expressed in transfected cells; host or cells: CHO-K1
Conditions: CHO-K1 cells expressing human NMUR2, stimulation buffer with 0.1% BSA; read-out: EC50 (hNMUR2) buffer
measured_property: EC50 (nM)
Response body: numeric value in nM, unit text excluded.

Q. Find the recorded EC50 belonging to CCCC[C@H](NC(=O)[C@H](CC(C)C)N(C)C(=O)[C@H](Cc1ccccc1)NC(=O)[C@H](Cc1ccc(O)cc1)NC(=O)CN1CCN(CCNC(=O)CN(C)C(=O)CN(C)C(=O)CN(C)C(=O)CN(C)C(=O)CN(C)C(=O)CN(C)C(=O)CN(C)C(=O)CN(C)C(=O)CN(C)C(=O)CN(C)C(=O)CN(C)C(=O)CN(C)C(=O)CC[C@H](NC(=O)CC[C@H](NC(=O)CC[C@H](NC(=O)CCCCCCCCCCCCCCCCCCC(=O)O)C(=O)O)C(=O)O)C(=O)O)CC1)C(=O)N[C@@H](CCN)C(=O)N(C)[C@@H](C)C(=O)N[C@@H](CCCNC(=N)N)C(=O)NCC(N)=O [Compound 59] and report it.
A. 5

----------
Experiment: physchem
Type: physicochemical
Settings: pH 7.2
Listed next: entries and their corresponding solubility at 2 h.
Put down the number, then write its unit next to it.

The cases that follow already have their solubility at 2 h on record.
given_smiles | measured_property | value
CCCC[C@H](NC(=O)[C@H](CC(C)C)N(C)C(=O)[C@H](Cc1ccccc1)NC(=O)[C@H](Cc1ccc(O)cc1)NC(=O)CN1CCN(CCNC(=O)CN(C)C(=O)CN(C)C(=O)CN(C)C(=O)CN(C)C(=O)CN(C)C(=O)CN(C)C(=O)CN(C)C(=O)CN(C)C(=O)CN(C)C(=O)CN(C)C(=O)CN(C)C(=O)CN(C)C(=O)CC[C@H](NC(=O)CC[C@H](NC(=O)CC[C@H](NC(=O)CCCCCCCCCCCCCCCCC(=O)O)C(=O)O)C(=O)O)C(=O)O)CC1)C(=O)N[C@@H](CCN)C(=O)N(C)[C@@H](C)C(=O)N[C@@H](CCCNC(=N)N)C(=O)NCC(N)=O | solubility at 2 h | 8800 µg/mL
CCCC[C@H](NC(=O)[C@H](CC(C)C)N(C)C(=O)[C@H](Cc1ccccc1)NC(=O)[C@H](Cc1ccc(O)cc1)NC(=O)CN1CCN(CCNC(=O)CN(C)C(=O)CN(C)C(=O)CN(C)C(=O)CN(C)C(=O)CN(C)C(=O)CN(C)C(=O)CN(C)C(=O)CN(C)C(=O)CN(C)C(=O)CN(C)C(=O)CN(C)C(=O)CN(C)C(=O)CC[C@H](NC(=O)CC[C@H](NC(=O)CC[C@H](NC(=O)CCCCCCCCCCCCCCCCC(=O)O)C(=O)O)C(=O)O)C(=O)O)CC1)C(=O)N[C@@H](CCN)C(=O)N1CCC[C@H]1C(=O)N[C@@H](CCCNC(=N)N)C(=O)NCC(N)=O | solubility at 2 h | 8800 µg/mL

Q. Find the recorded solubility at 2 h belonging to `CCCC[C@H](NC(=O)[C@H](CC(C)C)N(C)C(=O)[C@H](Cc1ccccc1)NC(=O)[C@H](Cc1ccc(O)cc1)NC(=O)CN1CCN(CCNC(=O)CN(C)C(=O)CN(C)C(=O)CN(C)C(=O)CN(C)C(=O)CN(C)C(=O)CN(C)C(=O)CN(C)C(=O)CN(C)C(=O)CN(C)C(=O)CN(C)C(=O)CN(C)C(=O)CN(C)C(=O)CC[C@H](NC(=O)CC[C@H](NC(=O)CC[C@H](NC(=O)CCCCCCCCCCCCCCCCC(=O)O)C(=O)O)C(=O)O)C(=O)O)CC1)C(=O)N[C@@H](CCCN)C(=O)N(C)[C@@H](C)C(=O)N[C@@H](CCCNC(=N)N)C(=O)NCC(N)=O` and report it.
A. 8400 µg/mL
